The reported numbers originate from paper PMC8113097.

Test details: Rat microsomal stability
Format: in vitro ADME
Particulars: microsomal data
Metric: metabolic stability (in words)

See these solved cases before continuing.
# Compound, metabolic stability (in words)
records = [
    ("NS(=O)(=O)c1ccc(Cc2c(-c3ccc(F)c(OCc4cccc(F)c4)c3)nn(-c3nc(C(=O)O)cs3)c2CC2CC2)cc1F [12h]", "quite poor"),
    ("NS(=O)(=O)c1ccc(Cc2c(-c3ccc(F)c(C(=O)N4CCCC4)c3)nn(-c3nc(C(=O)O)cs3)c2CC2CC2)cc1F [14b]", "good stability"),
    ("NS(=O)(=O)c1ccc(Cc2c(-c3ccc(F)c(OC4CC4)c3)nn(-c3nc(C(=O)O)cs3)c2CC2CC2)cc1F [12e]", "reasonable"),
    ("NS(=O)(=O)c1ccc(Cc2c(-c3ccc(F)c(NC(=O)c4ccccc4)c3)nn(-c3nc(C(=O)O)cs3)c2CC2CC2)cc1F [13i]", "good stability"),
    ("NS(=O)(=O)c1ccc(Cc2c(-c3ccc(F)c(OCC4CC4(F)F)c3)nn(-c3nc(C(=O)O)cs3)c2CC2CC2)cc1F (stereo not drawn) [12b]", "reasonable"),
]

We now examine a further compound.
Respond only with metabolic stability (in words) recorded for Cc1ccc(Oc2cc(-c3nn(-c4nc(C(=O)O)cs4)c(CC4CC4)c3Cc3ccc(S(N)(=O)=O)c(F)c3)ccc2F)cc1 [12p] quite poor
